All values here come from patent US20140348958A1.

Reported IC50 is given for each of the following molecules.
tested on: mammary cancer cells MCF-7; experiment: Proliferation measurement of mammary cancer cells MCF-7 (resazurin, 72 hrs exposure); assay type: cell-based; conditions: Homo sapiens, MCF7, mammary cancer line MCF-7, same conditions (Table 15, identical with Table 2); read-out: Average CI50 in μM
Write the numeric value and follow it with the unit.

> print(dat)
                                   molecule  quantity.kind  reported.result
1  C/C=C/C(=O)C1=CC(OC)=C2C(=O)C(OC)=CC(OC)=C2C1=O [Guieranone B]           IC50          7.09 µM

Please find the next molecule below.
Query: Form field: reported IC50 of O=c1[nH]cc(F)c(=O)[nH]1 [5-FU, 5-Fluorouracil, reference compound]
Response: 4.04 µM
